- Tested target: Human TRPA1 (Homo sapiens, UniProt O75762)
- Construct: expressed in transfected cells; host or cells: CHO cells
- Sequence (O75762 whole entry): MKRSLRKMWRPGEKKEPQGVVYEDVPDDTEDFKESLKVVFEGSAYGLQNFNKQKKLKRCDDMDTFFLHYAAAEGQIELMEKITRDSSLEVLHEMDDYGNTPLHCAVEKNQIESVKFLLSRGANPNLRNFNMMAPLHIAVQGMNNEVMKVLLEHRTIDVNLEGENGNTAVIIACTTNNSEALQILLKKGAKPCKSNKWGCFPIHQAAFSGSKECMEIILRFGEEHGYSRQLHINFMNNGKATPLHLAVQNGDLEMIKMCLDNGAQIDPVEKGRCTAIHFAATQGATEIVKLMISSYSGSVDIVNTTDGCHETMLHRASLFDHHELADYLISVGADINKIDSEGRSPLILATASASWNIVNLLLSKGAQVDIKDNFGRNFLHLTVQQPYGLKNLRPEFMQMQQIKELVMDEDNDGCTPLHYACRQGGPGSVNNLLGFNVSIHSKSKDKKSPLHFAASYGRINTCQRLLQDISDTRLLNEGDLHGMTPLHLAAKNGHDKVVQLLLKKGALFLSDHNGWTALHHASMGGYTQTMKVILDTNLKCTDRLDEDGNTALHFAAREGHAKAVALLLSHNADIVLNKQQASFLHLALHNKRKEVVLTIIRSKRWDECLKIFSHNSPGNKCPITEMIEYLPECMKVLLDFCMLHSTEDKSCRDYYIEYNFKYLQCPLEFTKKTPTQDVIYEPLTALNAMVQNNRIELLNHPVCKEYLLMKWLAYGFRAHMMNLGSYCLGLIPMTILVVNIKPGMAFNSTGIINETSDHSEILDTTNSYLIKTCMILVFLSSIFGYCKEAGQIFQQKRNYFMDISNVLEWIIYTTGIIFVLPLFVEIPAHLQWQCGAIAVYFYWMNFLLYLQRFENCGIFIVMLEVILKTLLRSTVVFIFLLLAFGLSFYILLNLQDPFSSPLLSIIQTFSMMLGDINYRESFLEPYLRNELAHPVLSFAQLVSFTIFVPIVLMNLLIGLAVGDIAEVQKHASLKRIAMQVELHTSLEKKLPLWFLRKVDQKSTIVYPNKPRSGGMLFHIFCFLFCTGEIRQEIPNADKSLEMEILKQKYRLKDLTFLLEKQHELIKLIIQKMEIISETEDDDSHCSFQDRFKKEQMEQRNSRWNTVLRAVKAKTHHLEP
- Run description: 45Calcium uptake assay: inhibition of AITC induced cellular uptake of radioactive calcium
- Assay type: cell-based
- Applied conditions: 1.0 μM test compound; AITC (30 μM) induced 45Ca uptake; Human TRPA1 expressing CHO cells; read-out: Percentage inhibition at 1.0 μM
Measured parameter: inhibition at 1 µM (%)
Report the figure in % without appending any unit label.

Cn1c(=O)c2c(cnn2CC(=O)Nc2nc(-c3ccc(OCC(C)(C)C)c(F)c3)cs2)n(C)c1=O [Example 69] ... 97.3
Cn1c(=O)c2c(ccn2CC(=O)Nc2nc(-c3cc(F)c(OCC(F)(F)F)c(Cl)c3)cs2)n(C)c1=O [Example 16] ... 95
Cn1nc2c(c1CC(=O)Nc1nc(-c3ccc(C(F)(F)F)c(F)c3)cs1)c(=O)n(C)c(=O)n2C [Example 54] ... 97.7
Cn1nc2c(c1CC(=O)Nc1nc(-c3ccc(F)c(C(F)(F)F)c3)cs1)c(=O)n(C)c(=O)n2C [Example 53] ... 97.2
Cn1nc2c(c1CC(=O)Nc1nc(-c3ccc(C(F)(F)F)cc3F)cs1)c(=O)n(C)c(=O)n2C [Example 56] ... 96.2
Cn1nc2c(c1CC(=O)Nc1nc(-c3cccc(C(F)(F)F)c3F)cs1)c(=O)n(C)c(=O)n2C [Example 55] ... 92.2
CC(C)CCOc1c(F)cc(-c2csc(NC(=O)Cn3ccc4c3c(=O)n(C)c(=O)n4C)n2)cc1F [Example 7] ... 35.5
Cn1nc2c(c1CC(=O)Nc1nc(-c3ccc(OC(F)(F)F)c(F)c3)cs1)c(=O)n(C)c(=O)n2C [Example 59] ... 97.6

Let us move to another entry and its inhibition at 1 µM.
What does the record list as inhibition at 1 µM for Cn1c(=O)c2c(cnn2CC(=O)Nc2nc(-c3ccc(Cl)cc3)cs2)n(C)c1=O [Example 67] ?
57.6

Where these numbers come from: patent US9000159B2
